# System: SK-MEL-5
# assay.notes: NCI tumour cell line growth inhibition, 48 h
Activity calls are given as the source filed them. No stated cut-off is given here; in the data, active = GI50 up to about 1.1 µM and inactive = higher.
Would you mind answering with one of these outcomes? True (active), False (inactive)

Query: Assay result, entry CC1(C)[C@H]2CC[C@](C)(C2)[C@]1(S)Cc1ccccn1 — outcome?
Reply: False

Query: Record lookup: outcome of this test for CC1CCC2(OC1)OC1CC3C4CC=C5CC(OC6OC(CO)C(OC7OC(C)C(OC8OC(C)C(O)C(O)C8O)C(O)C7O)C(O)C6OC6OC(C)C(O)C(O)C6O)CCC5(C)C4CCC3(C)C1C2C (configuration not stated) ?
Reply: False

Query: Hi, do you know how N=c1oc2ccc(Cl)cc2cc1C(=O)Nc1ccccc1 came out in this test?
Reply: False

Query: Which outcome was entered for the compound C/C(CC(=O)Nc1cc(C)ccc1C)=N\NC(=O)c1ccncc1 in this test?
Reply: False

Query: Just curious, what result did CC(=O)Nc1ccc(-c2nc3cc(Cl)ccc3o2)cc1 get here?
Reply: False

Query: Please state the recorded outcome for this compound: COc1cccc(/N=N/C(=N/NC(=O)c2cc(Cl)ccc2O)c2ccc(N(CCC#N)CCC#N)cc2C)c1
Reply: False

Query: Hi team, can someone confirm the assay call for COc1cccc2c1C(=O)c1c(O)c3c(c(O)c1C2=O)CC(O)(C(=O)CO)CC3OC1CC(N2CCOCC2C#N)C(O)C(C)O1 (configuration not stated) ?
Reply: True

Query: recorded result category for O=S(=O)(O)c1cc(S(=O)(=O)O)c2cc(/N=N/c3ccc(/N=N/c4ccc(/C=C/c5ccc(/N=[N+](/[O-])c6ccc(/C=C/c7ccc(/N=N/c8ccc(/N=N/c9ccc%10cc(S(=O)(=O)O)cc(S(=O)(=O)O)c%10c9)cc8)cc7S(=O)(=O)O)c(S(=O)(=O)O)c6)cc5S(=O)(=O)O)c(S(=O)(=O)O)c4)cc3)ccc2c1 in this test
Reply: False

Query: What call does the record list for C[N+](C)(C)CC(=O)N/N=C(/Cc1nc2ccc([N+](=O)[O-])cc2nc1O)C(=O)Nc1cc(C(F)(F)F)ccc1Cl ?
Reply: False

Query: What was the test verdict on COc1ccc(C(=O)/C=C/c2ccc(OCC#N)cc2)cc1OC ?
Reply: False

Query: Please indicate how the test categorized CC(SC(=S)N(C)C)C(=O)Nc1nnc(-c2ccc(Cl)cc2)o1 (configuration not stated) .
Reply: False

Query: Recorded test call requested for O=[N+]([O-])c1cc2ccc1OCc1cccc(n1)COc1ccc(cc1[N+](=O)[O-])/C=N\CCCCCCCC/N=C\2
Reply: False

Query: Could you check what this test reported for COc1ccc(-c2cc(O)c3ccc(F)cc3n2)cc1 ?
Reply: False

Query: What call does the record list for CC(C)(C)OC(=O)[C@@H]1CCC(=O)N1C1(c2ccccc2)c2ccccc2-c2ccccc21 ?
Reply: False

Query: Status in this test for O=C(O)c1cc(C(=O)O)cc(N2C(=O)c3ccccc3C2=O)c1 ?
Reply: False

Query: How was COC(=O)C1(Cc2ccc(C)cc2)Cc2c(C)cccc2C1=O (configuration not stated) classified in this test?
Reply: False

Query: // param item: C[N+](C)(C)/N=C\c1ccc(O)c(O)c1 ; yields the recorded call
Reply: False

====

# System: 786-0
# assay.notes: NCI tumour cell line growth inhibition, 48 h
The source made the active and inactive calls. Cut-off read from the data, not from the text of the source: active = GI50 up to about 1.1 µM and inactive = higher.
quantity.name: GI50

// COC1=C(C)C(=O)C2C(C1=O)C(c1ccc(OC)c(OC)c1)[C@H]2C (some centres undefined) : GI50 value = > 100 µM (inactive)

Looking up CN(C)c1ccc(/C=N/Nc2nc3ccccc3c(=O)n2-c2ccccc2)cc1 , I see its GI50 listed as 23.7 µM (inactive)

GI50 in this record for CC(C)CCCC(C)[C@H]1CC[C@H]2[C@@H]3CC[C@H]4C[C@@H](CCC=C(c5cc(Cl)c(O)c(C(=O)OC(C)C)c5)c5cc(Cl)c(O)c(C(=O)OC(C)C)c5)CC[C@]4(C)[C@H]3CC[C@]12C (some centres undefined) : > 50 µM (inactive)

response.value for Oc1ccccc1/C=C/c1csnn1 (field: GI50) = > 31.6 µM (inactive)

// sample CN(C)/C=[N+]1/[C@@H](Cc2ccccc2)C(=O)O[B-]1(F)c1ccccc1 (some centres undefined) , its GI50 was > 100 µM (inactive)

Notebook: COC(=O)C1(Cc2ccc(C)cc2)Cc2c(C)cccc2C1=O (centres undefined) , GI50 read as 20.5 µM (inactive)

The reported value for CC1(C)[C@H]2Cc3cc4nc5ccccn5c4cc3[C@@H]1C2 in terms of GI50 is 17.2 µM (inactive)

Measured GI50, O=C1OC[C@@H]2Cc3cc4c(cc3[C@H](c3ccc5c(c3)OCO5)[C@@H]12)OCO4 : > 25 µM (inactive)

# compound FC(F)(F)c1cccc(C2SCc3nc4ccccc4n32)c1 (centres undefined) ; its GI50 = 61.5 µM (inactive)

GI50 reported for this compound C=C(C)C12OC1[C@@]1(C)C(=CC2=O)CCC(O)[C@@H]1C (some centres undefined) : 1.64 µM (inactive)

For record CC12CC3CC/C(=N\O)C(C1)C3(N1CCOCC1)C/C2=N/O (centres undefined) the listed GI50 is > 100 µM (inactive)

Lab book: GI50 of COc1ccc2oc(C(=O)O)c3c2c1CCC3 noted as > 100 µM (inactive)

What the record says about COc1cc(-c2nc(N)c(C#N)c3c2CCS(=O)(=O)c2ccc(C)cc2-3)cc(OC)c1OC : GI50 is 19.1 µM (inactive)

So, CCOC(=O)/C(=C\NC(C)(C)CO)c1nc2ccccc2[nH]1 ? Its GI50 was > 100 µM (inactive)

Short answer for Cc1cc2nc(N3C(=O)/C(=C/c4ccc(Cl)cc4)N=C3c3ccccc3)sc2cc1C : GI50 was 29.4 µM (inactive)

Entry CCN(CC)CCNC(=O)c1ccc(I)cc1 , GI50 reported as > 100 µM (inactive)

GET /value?item= O=C(c1ccccc1)C1N=NCC1c1ccc([N+](=O)[O-])cc1 (centres undefined) &field=GI50 returns > 100 µM (inactive)

Notebook: CCOC(=O)CCC(NC(=O)c1ccc(Nc2cnc3ccc(C(F)(F)F)cc3n2)cc1)C(=O)OCC (centres undefined) , GI50 read as 10.5 µM (inactive)

Query CCCC(C)C[C@@H](C)CC(C)/C=C(\C)c1oc(=O)c(C)c(O)c1C.CC[C@@H](C)C[C@@H](C)C[C@@H](C)/C=C(\C)c1oc(=O)c(C)c(O)c1C (some centres undefined) yields GI50 of 14.5 µM (inactive)
